- EXPERIMENTAL_TARGET: His-Spindlin1(49–262) (Homo sapiens)
- Sequence (Q9Y657 49-262): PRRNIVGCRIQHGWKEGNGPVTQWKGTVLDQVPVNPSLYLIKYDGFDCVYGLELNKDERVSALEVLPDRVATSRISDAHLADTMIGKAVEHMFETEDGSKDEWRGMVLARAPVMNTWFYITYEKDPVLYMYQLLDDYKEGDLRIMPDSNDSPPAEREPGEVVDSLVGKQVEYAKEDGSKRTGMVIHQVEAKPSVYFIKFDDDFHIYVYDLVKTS
- CONDITION: fluorescence polarization
RECORDED_METRIC: Spindlin1 inhibitory activity (in words)

// below: answered compounds
>  <COMPOUND>
CCC1(C)C(N)=Nc2cc(OCCCN3CC[C@@H](C)C3)c(OC)cc21 (some centres unmarked) [1t]

>  <VALUE_REPORTED>
nanomolar range

$$$$
>  <COMPOUND>
COc1cc2c(cc1OCCN1CCCC1)N=C(N)C21CCC1 [1e]

>  <VALUE_REPORTED>
Inactive

$$$$
>  <COMPOUND>
COc1cc2c(cc1OCCCN1CCC(=O)C1)N=C(N)C21CCCC1 [1b]

>  <VALUE_REPORTED>
weakly active

$$$$
>  <COMPOUND>
COc1cc2c(cc1OCCN1CCCC1)N=C(N)C21CCCCC1 [1d]

>  <VALUE_REPORTED>
Inactive

$$$$
>  <COMPOUND>
CCOc1c(OCCCN2CCCC2)cc2c(c1OCC)C1(CCCC1)C(N)=N2 [1a]

>  <VALUE_REPORTED>
weakly active

$$$$

Consider now this further compound.
[ask] Would you mind telling me what Spindlin1 inhibitory activity (in words) value was observed for CCC1(C)C(N)=Nc2cc(OCCCN3Cc4ccccc4C3)c(OC)cc21 (centres unmarked) [1s] ?
[reply] nanomolar range

* * *

Endpoint: IC50. System: G9a. Items follow.
Numbers only, in nM.

>  <COMPOUND>
COc1cc2c(cc1OCCCN1CCCC1)N=C(N)C2(C)C

>  <IC50 / nM>
759

$$$$
>  <COMPOUND>
CCC1(C)C(N)=Nc2cc(OCCCN3CCCC3)c(OC)cc21 (stereo not drawn)

>  <IC50 / nM>
3190

$$$$
>  <COMPOUND>
CCOc1cc2c(cc1OCCCN1CCCC1)N=C(N)C21CCCC1

>  <IC50 / nM>
243

$$$$
>  <COMPOUND>
COc1cc2c(cc1OCCCN1CCCC1)N=C(N)C21CCCCC1

>  <IC50 / nM>
779

$$$$

[ask] Would you mind telling me what IC50 value was observed for "COc1cc2c(cc1OCCCN1CCCC1)N=C(N)C21CCCC1" ?
[reply] 431

* * *

Endpoint: IC50. System: Spindlin1 (Spin1). Items follow.
Answers are plain numbers, in nM.

Count: 6. Required value per item: IC50.
1. COc1c(OCCCN2CCCC2)cc2c(c1C#N)C1(CCCC1)C(N)=N2 [1h]
2. CCOc1cc2c(cc1OCCCN1CCCC1)N=C(N)C21CCCCC1 [1l]
3. CCC1(C)C(N)=Nc2cc(OCCCN3Cc4ccccc4C3)c(OC)cc21 (stereo not drawn) [1s]
4. COc1cc2c(cc1OCCCN1CCC(CO)C1)N=C(N)C21CCCC1 (stereo not drawn) [1u]
5. COc1c(OCCCN2CCCC2)cc2c(c1Cl)C1(CCCC1)C(N)=N2 [1i]
6. COc1c(OCCCN2CCCC2)cc2c(c1C(C)=O)C1(CCCC1)C(N)=N2 [1k]

[reply]
1: 3900; 2: 567; 3: 360; 4: 1250; 5: 1600; 6: 11800

* * *

- EXPERIMENTAL_TARGET: GLP (982–1266) (Homo sapiens, UniProt Q9H9B1)
- Construct: GLP (982–1266) were cloned, expressed, and purified; made in house
- Sequence (Q9H9B1 982-1266): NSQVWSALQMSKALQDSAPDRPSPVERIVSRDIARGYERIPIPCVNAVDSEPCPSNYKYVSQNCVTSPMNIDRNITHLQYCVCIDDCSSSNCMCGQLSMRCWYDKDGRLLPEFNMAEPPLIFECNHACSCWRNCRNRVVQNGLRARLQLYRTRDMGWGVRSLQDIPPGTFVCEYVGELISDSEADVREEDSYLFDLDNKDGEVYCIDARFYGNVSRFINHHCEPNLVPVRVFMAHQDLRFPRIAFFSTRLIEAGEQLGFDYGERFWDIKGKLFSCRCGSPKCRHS
- ASSAY_COMMENT: Coupled enzyme fluorescent histone methyltransferase assay (SAM-SAH conversion)
- Assay type: biochemical
- CONDITION: fluorescence based coupled enzyme assay
RECORDED_METRIC: pIC50
Numbers only, as −log10 of the molar value.

>  <COMPOUND>
COc1cc2c(cc1OCCCN1CCCC1)N=C(N)C21CCCCC1 [1n]

>  <EXPERIMENTAL_TARGET>
GLP (982–1266) (Homo sapiens, UniProt Q9H9B1)

>  <pIC50>
6.28

$$$$
>  <COMPOUND>
CCC1(C)C(N)=Nc2cc(OCCCN3CCCC3)c(OC)cc21 (stereo not shown) [1r]

>  <EXPERIMENTAL_TARGET>
GLP (982–1266) (Homo sapiens, UniProt Q9H9B1)

>  <pIC50>
5.50

$$$$
>  <COMPOUND>
COc1cc2c(cc1OCCCN1CCC(O)C1)N=C(N)C21CCCC1 (racemic) [1q (rac)]

>  <EXPERIMENTAL_TARGET>
GLP (982–1266) (Homo sapiens, UniProt Q9H9B1)

>  <pIC50>
5.35

$$$$

Consider now this further compound.
[ask] Would you mind telling me what pIC50 value was observed for CCOc1cc2c(cc1OCCCN1CCCC1)N=C(N)C21CCCC1 [1g] ?
[reply] 5.53
